Attribution: ChEMBL document CHEMBL4316588

Assay: AUCt in Beagle dog at 5 mg/kg, po by LC-MS/MS analysis
Assay type: ADME, organism-based, Canis lupus familiaris
Conditions: in vivo

chem-smiles	unit-abbreviation	AUC(0-t)
C[C@@H]1CN2c3c(cc4c(N5CC6(CC6)OC5=O)noc4c3F)CC3(C(=O)NC(=O)NC3=O)[C@H]2[C@H](C)O1	ng·h/mL	17500

---

Molecular target: Cytochrome P450 2C9 (Homo sapiens, UniProt P11712)
Sequence (P11712 whole entry): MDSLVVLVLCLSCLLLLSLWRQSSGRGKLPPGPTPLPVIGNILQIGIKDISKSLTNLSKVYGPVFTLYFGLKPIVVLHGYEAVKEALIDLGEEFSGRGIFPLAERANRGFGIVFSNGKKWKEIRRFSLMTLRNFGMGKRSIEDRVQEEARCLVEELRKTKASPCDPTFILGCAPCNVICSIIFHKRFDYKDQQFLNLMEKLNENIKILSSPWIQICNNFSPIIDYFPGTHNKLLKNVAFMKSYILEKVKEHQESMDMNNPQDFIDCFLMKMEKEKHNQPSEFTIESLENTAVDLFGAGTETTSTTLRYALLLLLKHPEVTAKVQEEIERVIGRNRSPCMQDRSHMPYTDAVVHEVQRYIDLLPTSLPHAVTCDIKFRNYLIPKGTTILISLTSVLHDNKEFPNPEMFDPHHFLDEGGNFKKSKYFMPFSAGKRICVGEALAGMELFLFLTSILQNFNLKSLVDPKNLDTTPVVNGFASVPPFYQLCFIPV
property: IC50

chem-smiles	study-target	property	endpoint-result
C[C@@H]1CN2c3c(cc4c(N5CC6(CC6)OC5=O)noc4c3F)CC3(C(=O)NC(=O)NC3=O)[C@H]2[C@H](C)O1	Cytochrome P450 2C9 (Homo sapiens, UniProt P11712)	IC50	> 25 µM

---

Assay: AUCt in Sprague-Dawley rat at 10 mg/kg, iv by LC-MS/MS analysis
Format: ADME, organism-based
Conditions: in vivo

chem-smiles	unit-abbreviation	AUC(0-t)
C[C@@H]1CN2c3c(cc4c(N5CC6(CC6)OC5=O)noc4c3F)CC3(C(=O)NC(=O)NC3=O)[C@H]2[C@H](C)O1	µg·h/mL	104

---

Test: Oral bioavailability in Sprague-Dawley rat at 10 mg/kg by LC-MS/MS analysis
Format: ADME, organism-based
Conditions: in vivo

chem-smiles	bioavailability
C[C@@H]1CN2c3c(cc4c(N5CC6(CC6)OC5=O)noc4c3F)CC3(C(=O)NC(=O)NC3=O)[C@H]2[C@H](C)O1	22.6%

---

Assay: Clearance in Sprague-Dawley rat at 10 mg/kg, iv by LC-MS/MS analysis
Format: ADME, organism-based
Conditions: in vivo
property: clearance (mL/min/kg)

chem-smiles	property	endpoint-result
C[C@@H]1CN2c3c(cc4c(N5CC6(CC6)OC5=O)noc4c3F)CC3(C(=O)NC(=O)NC3=O)[C@H]2[C@H](C)O1	clearance	1.57

---

Test system: Staphylococcus aureus
Test: Antibacterial activity against methicillin-resistant Staphylococcus aureus after 18 to 20 hrs by CLSI-protocol based broth microdilution method
Format: functional
Active and inactive are the calls of the source. The calls are words filed in the database; no cut-off is given here.
property: MIC

compound	endpoint-result
C[C@@H]1CN2c3c(cc4c(N5CCOC5=O)noc4c3F)CC3(C(=O)NC(=O)NC3=O)[C@H]2[C@H](C)O1	0.03 to 1 µg/mL
C[C@@H]1CN2c3c(cc4c(N5CC6(CCCC6)OC5=O)noc4c3F)CC3(C(=O)NC(=O)NC3=O)[C@H]2[C@H](C)O1	0.06 to 1 µg/mL
C[C@@H]1CN2c3c(cc4c(N5C(=O)OC[C@@H]5C)noc4c3F)CC3(C(=O)NS(=O)(=O)NC3=O)[C@H]2[C@H](C)O1	inactive
C[C@@H]1CN2c3c(cc4c(N5C(=O)OCC5(C)C)noc4c3F)CC3(C(=O)NC(=O)NC3=O)[C@H]2[C@H](C)O1 (racemic)	16 µg/mL
C[C@@H]1CN2c3c(cc4c(N5C(=O)SCC56CC6)noc4c3F)CC3(C(=O)NC(=O)NC3=O)[C@H]2[C@H](C)O1	0.5 to 8 µg/mL
C[C@@H]1CN2c3c(cc4c(N5C(=O)SC[C@H]5C)noc4c3F)CC3(C(=O)NC(=O)NC3=O)[C@H]2[C@H](C)O1	0.03 to 0.5 µg/mL
C[C@@H]1CN2c3c(cc4c(N5CC6(CC6)OC5=O)noc4c3F)CC3(C(=O)NC(=O)NC3=O)[C@H]2[C@H](C)O1 (racemic)	0.03 to 0.125 µg/mL
C[C@@H]1CN2c3c(cc4c(N5C(=O)S[C@H]6CCC[C@H]65)noc4c3F)CC3(C(=O)NC(=O)NC3=O)[C@H]2[C@H](C)O1	0.25 to 1 µg/mL
C[C@@H]1CN2c3c(cc4c(N5C[C@H](CO)SC5=O)noc4c3F)CC3(C(=O)NC(=O)NC3=O)[C@H]2[C@H](C)O1	0.5 to 4 µg/mL
C[C@@H]1CN2c3c(cc4c(N5C(=O)OC[C@@H]5C)noc4c3F)CC3(C(=O)NC(=S)NC3=O)[C@H]2[C@H](C)O1	inactive
C[C@@H]1CN2c3c(cc4c(N5C(=O)S[C@@H]6CCCC[C@@H]65)noc4c3F)CC3(C(=O)NC(=O)NC3=O)[C@H]2[C@H](C)O1	0.5 to 2 µg/mL
C[C@@H]1CN2c3c(cc4c(N5C(=O)OC[C@@H]5C)noc4c3C#N)CC3(C(=O)NC(=O)NC3=O)[C@H]2[C@H](C)O1	1 to 32 µg/mL
C[C@@H]1CN2c3c(cc4c(N5C(=O)SC[C@@H]5Cc5ccccc5)noc4c3F)CC3(C(=O)NC(=O)NC3=O)[C@H]2[C@H](C)O1	8 to 16 µg/mL
C[C@@H]1CN2c3c(cc4c(N5CCOC5=O)ncnc4c3F)CC3(C(=O)NC(=O)NC3=O)[C@H]2[C@H](C)O1 (relative stereo)	inactive
